Reference source: the supplement of paper PMC8728848

SYSTEM_TESTED: Gal(a1-2)Gal
EXPERIMENTAL_PROTOCOL: glycan array binding signal (z-score within array); higher = stronger binding
RUN_CONDITIONS: glycan notation: IUPAC condensed, linker removed
Many of the other results were omitted from the sample, so the strongest signals are more common in it than they were.
PROPERTY_LABEL: glycan array binding signal (z-score)

BINDER	PROPERTY_LABEL	VALUE_OBSERVED
VLRB.aGPA.23-GCN4-biotin (Petromyzon marinus) (protein) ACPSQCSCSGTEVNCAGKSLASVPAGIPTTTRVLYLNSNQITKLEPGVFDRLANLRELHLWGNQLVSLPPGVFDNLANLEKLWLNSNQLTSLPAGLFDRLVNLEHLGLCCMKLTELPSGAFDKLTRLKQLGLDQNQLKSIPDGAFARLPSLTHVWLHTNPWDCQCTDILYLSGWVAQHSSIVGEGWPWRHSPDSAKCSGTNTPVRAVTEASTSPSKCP	glycan array binding signal (z-score)	0.157
CD72 ectodomain (Homo sapiens), P21854 (protein) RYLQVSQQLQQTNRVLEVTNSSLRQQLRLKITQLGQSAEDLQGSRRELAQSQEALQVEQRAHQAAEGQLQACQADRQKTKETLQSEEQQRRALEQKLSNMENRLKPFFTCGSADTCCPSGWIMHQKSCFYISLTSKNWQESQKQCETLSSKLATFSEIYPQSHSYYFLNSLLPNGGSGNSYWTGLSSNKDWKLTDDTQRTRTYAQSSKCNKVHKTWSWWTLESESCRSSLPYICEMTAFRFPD	glycan array binding signal (z-score)	0.56
Nictaba (Nicotiana tabacum), Q94EW1 (protein) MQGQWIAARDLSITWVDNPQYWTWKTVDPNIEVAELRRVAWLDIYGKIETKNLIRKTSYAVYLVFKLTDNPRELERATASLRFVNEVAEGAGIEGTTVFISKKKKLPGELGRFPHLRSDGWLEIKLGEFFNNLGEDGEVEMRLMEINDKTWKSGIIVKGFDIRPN	glycan array binding signal (z-score)	-0.289
LICBM33A (Lactococcus lactis), Q9CE94 (protein) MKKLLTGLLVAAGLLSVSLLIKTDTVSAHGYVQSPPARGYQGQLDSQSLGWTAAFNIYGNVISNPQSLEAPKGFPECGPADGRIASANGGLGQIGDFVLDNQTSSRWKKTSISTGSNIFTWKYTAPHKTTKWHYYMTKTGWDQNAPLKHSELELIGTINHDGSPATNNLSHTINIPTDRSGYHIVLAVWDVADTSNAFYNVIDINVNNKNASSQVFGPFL	glycan array binding signal (z-score)	-0.28
PP2A1 (Arabidopsis thaliana) (protein) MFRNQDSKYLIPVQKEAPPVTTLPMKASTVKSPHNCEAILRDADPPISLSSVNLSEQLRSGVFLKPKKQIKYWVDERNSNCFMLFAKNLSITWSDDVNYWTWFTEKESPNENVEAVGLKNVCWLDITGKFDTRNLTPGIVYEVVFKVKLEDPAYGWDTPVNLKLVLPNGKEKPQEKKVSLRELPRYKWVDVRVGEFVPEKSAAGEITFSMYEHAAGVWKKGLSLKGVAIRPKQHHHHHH	glycan array binding signal (z-score)	-0.291
